Where do the numbers come from? From patent US20240109855A1.

- Test system: lasR-lasI
- test protocol: Bioluminescence QS reporter bacteria, lasRI
- Format: cell-based, P. aeruginosa
- test conditions: Pseudomonas aeruginosa, read-out: IC50, lasR-lasI
experimental readout: IC50 (µM)
Respond with the bare value in µM.

// COc1cc(/C=C/C(=O)N2CCC=CC2=O)cc(O)c1O [PL-18, Dihydroxy piperlongumine] : IC50 value = 22

###

- Tested on: Acinetobacter baumannii
- test protocol: Diffusion discs test, Acinetobacter baumannii
- Format: cell-based
- Design: key: —: no activity
- test conditions: discs with 40 mM of compound in 20 μl solvent
experimental readout: Acinetobacter baumannii, diameter of growth inhibition

Record for `CSc1ccc(/C=C/C=C/C(=O)N2CCCCC2)cc1` under target or system Acinetobacter baumannii: Acinetobacter baumannii, diameter of growth inhibition reported as —

Per the reported Acinetobacter baumannii data, `O=C(/C=C/C=C/c1ccc(F)cc1)N1CCCCC1` has Acinetobacter baumannii, diameter of growth inhibition of —

Acinetobacter baumannii, diameter of growth inhibition for Acinetobacter baumannii with input `O=C(/C=C/C=C/c1ccccc1)N1CCCCC1` equals —

Entry `O=C(/C=C/C1CCCCC1)N1CCCCC1` , Acinetobacter baumannii data, Acinetobacter baumannii, diameter of growth inhibition value: —

Entry `O=C(/C=C/C(=O)N1CCCCC1)c1ccc(F)c(F)c1` , Acinetobacter baumannii data, Acinetobacter baumannii, diameter of growth inhibition value: —

Shift focus to the following entry.
The reported Acinetobacter baumannii, diameter of growth inhibition value, Acinetobacter baumannii, for O=C1C=CCCN1C(=O)/C=C/c1cc(O)c(O)c(O)c1 [PL-25, trihydroxy piperlongumine] reads —

###

- System: Agrobacterium tumefaciens (KYC55)
- test protocol: Quorum sensing inhibition test with bio-reporter KYC55 (TLC overlay); further: key: −: no inhibition; +: low inhibition; ++: medium inhibition; +++: strong inhibition
- Format: cell-based
- test conditions: Table 2, piperlongumine derivatives
experimental readout: Degree of quorum sensing inhibition (QSI), KYC55

Below, 5 compounds whose answers are already recorded.
Lab note: compound `CCOC(=O)CNC(=O)/C=C/c1cc(OC)c(OC)c(OC)c1` tested on Agrobacterium tumefaciens (KYC55); recorded Degree of quorum sensing inhibition (QSI), KYC55 was −

With Agrobacterium tumefaciens (KYC55) as the test system, `COc1cc(/C=C/C(=O)NCCO)cc(OC)c1OC` showed Degree of quorum sensing inhibition (QSI), KYC55 of −

Record COc1cc(/C=C/C(=O)OC(=O)/C=C/c2cc(OC)c(OC)c(OC)c2)cc(OC)c1OC [PL-16A] / Agrobacterium tumefaciens (KYC55), Degree of quorum sensing inhibition (QSI), KYC55 recorded as −

Form: item O=C1C=CCCN1C(=O)/C=C/c1cc(O)c(O)c(O)c1 [PL-25, trihydroxy piperlongumine] ; test system Agrobacterium tumefaciens (KYC55); Degree of quorum sensing inhibition (QSI), KYC55: ++

# `COc1cc(/C=C/C(=O)NCCCCC(=O)O)cc(OC)c1OC` with Agrobacterium tumefaciens (KYC55): Degree of quorum sensing inhibition (QSI), KYC55 is −

Others:
Form field Degree of quorum sensing inhibition (QSI), KYC55 for item `CCNC(=O)/C=C/c1cc(OC)c(OC)c(OC)c1` on Agrobacterium tumefaciens (KYC55): −

Hey, Agrobacterium tumefaciens (KYC55) data for `COc1cc(/C=C/C(=O)NC(C)C)cc(OC)c1OC` : Degree of quorum sensing inhibition (QSI), KYC55 came out at −

Simply: `COc1cc(/C=C/C(=O)N2CCCCC2)cc(OC)c1OC` , Agrobacterium tumefaciens (KYC55), Degree of quorum sensing inhibition (QSI), KYC55 = −

Bench note, Agrobacterium tumefaciens (KYC55): entry `COc1cc(/C=C/C(=O)NCC(=O)O)cc(OC)c1OC` , its Degree of quorum sensing inhibition (QSI), KYC55 = +

Entry `COc1cc(/C=C/C(=O)NCCc2ccc(O)cc2)cc(OC)c1OC` ; assay system Agrobacterium tumefaciens (KYC55); Degree of quorum sensing inhibition (QSI), KYC55 recorded at −

Recorded Degree of quorum sensing inhibition (QSI), KYC55 for `C=CCNC(=O)/C=C/c1cc(OC)c(OC)c(OC)c1` on Agrobacterium tumefaciens (KYC55) was +

Agrobacterium tumefaciens (KYC55) data for `COc1cc(/C=C/C(=O)NCCc2ccc(O)c(O)c2)cc(OC)c1OC` ; its Degree of quorum sensing inhibition (QSI), KYC55: −

# Degree of quorum sensing inhibition (QSI), KYC55 measured on Agrobacterium tumefaciens (KYC55) for item `COc1cc(/C=C/C(=O)NCc2ccccc2)cc(OC)c1OC` = −

# value of Degree of quorum sensing inhibition (QSI), KYC55, Agrobacterium tumefaciens (KYC55), item `CCNC(=O)/C=C/c1cc(OC)c(O)c(OC)c1` = −

Observed Degree of quorum sensing inhibition (QSI), KYC55 on Agrobacterium tumefaciens (KYC55), entry COc1cc(/C=C/C(=O)N2CCC=CC2=O)cc(OC)c1OC [PL, Piperlongumine, reference compound] , equals −

# lookup: COc1cc(/C=C/C(=O)N2CCC=CC2=O)cc(O)c1O [PL-18, Dihydroxy piperlongumine] on Agrobacterium tumefaciens (KYC55), Degree of quorum sensing inhibition (QSI), KYC55 = +++

Short answer on Agrobacterium tumefaciens (KYC55) for `COc1cc(/C=C/C(=O)N2CCCCC2=O)cc(OC)c1OC` , Degree of quorum sensing inhibition (QSI), KYC55: −

###

- Tested on: Chromobacterium violaceum (CV026)
- test protocol: Quorum sensing inhibition test with bio-reporter CV026 (TLC overlay); further: key: −: no inhibition; +: low inhibition; ++: medium inhibition; +++: strong inhibition
- Format: cell-based
- test conditions: Table 3, curcumin derivatives
experimental readout: Degree of quorum sensing inhibition (QSI), CV026

// Degree of quorum sensing inhibition (QSI), CV026 value for COc1cc(/C=C/C(=O)CC(=O)/C=C/c2ccc(O)c(OC)c2)ccc1O [curcumin, Curcumin, reference compound] : +

So, COc1cc(CCC(=O)CC(=O)CCc2ccc(O)c(OC)c2)ccc1O [HCU, Tetrahydrocurcumin] ? Its Degree of quorum sensing inhibition (QSI), CV026 was +

Note to self: Degree of quorum sensing inhibition (QSI), CV026 recorded for `COc1cc(/C=C/C(=O)CC(=O)/C=C/c2ccc(OC(C)=O)c(OC)c2)ccc1OC(C)=O` was −

The compound identified as COc1cc(CCC(=O)CC(=O)CCc2ccc(OC(C)=O)c(OC)c2)ccc1OC(C)=O [AC-THC, Diacetylated Tetrahydrocurcumin] registered its Degree of quorum sensing inhibition (QSI), CV026 at −
